# Protocol Description: thallium influx changes without GIRK channels – cell-based, HEK-293 rmGlu8, no GIRK, thallium flux, counter-screen for GIRK activator project, confirmation (AID 623868);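 note: extra codes mark interference with 3 for fluorescent and 4 for baseline rise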
# Test Conditions: thallium flux fluorescence, at 10 µM, actives lie on both sides, codes: 1 enhancer, -1 blocker, 0 none, thallium stimulus containing EC20 glutamate
The whole screen tested about 2,100 compounds, of which about 760 (36%) were called active. Only a sample is shown.
Please respond with reported manual score for every item in the list.
Answers are plain numbers.

Example molecules with recorded manual score:
>>> value("CCC(CC)c1nnc(NC(=O)C2COc3ccccc3O2)s1 (stereo not drawn)")
0
>>> value("Cc1ccc(C2CC2c2n[nH]c(=S)n2-c2ccc(Cl)cc2)cc1 (stereo not drawn)")
0

Take each entry in turn and give its manual score.
1. CC(C)(C)c1ccc(C(=O)NC(=S)Nc2nc3c(s2)CCCC3)cc1
2. Cc1nnc(NC(=O)CCSc2ccccc2)s1
3. CC(C)(C)C(=O)Nc1nc2c(s1)COc1ccccc1-2
4. S=C1NC(c2ccccc2)=NCN1c1ccc(Cl)cc1
5. Cc1cc(C)n(-c2nnc(C)n2/N=C/c2ccccc2OCc2ccccc2Cl)n1
6. CCOC(=O)C1=C(NC(=S)NC(=O)c2ccccc2)c2ccccc2CC1(C)C
7. Cn1c(=O)c2c(nc3sccn32)n(C)c1=O

Key:
1
0
-0.5
1
-1
0
0

* * *

# Protocol Description: thallium influx changes without GIRK channels – cell-based, HEK-293 rmGlu8, no GIRK, thallium flux, counter-screen for GIRK activator project, confirmation (AID 623868);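 note: extra codes mark interference with 3 for fluorescent and 4 for baseline rise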
# Test Conditions: thallium flux fluorescence, at 10 µM, actives lie on both sides, codes: 1 enhancer, -1 blocker, 0 none, thallium stimulus containing EC20 glutamate
About 760 (36%) of roughly 2,100 compounds were called active.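 Rule for the calls: active = thallium-flux fluorescence traces judged by eye to show enhanced or reduced glutamate response, manual score 1 or -1, so both directions (some results past the limit were not filed as active); inactive = the rest, including fluorescent or raised-baseline compounds.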 Only a sample is shown.
Hi there, use one of these labels in your reply, thanks! class 1 for active, class 0 for inactive

>>> assigned_label("COc1ccc(Cn2c(=S)[nH]c3ccsc3c2=O)cc1")
"class 1"
>>> assigned_label("N#CC1=C(N)SC(N)=C(C#N)C1c1c(Cl)cccc1Cl")
"class 1"
>>> assigned_label("CS(=O)(=O)N(CCc1ccccc1)CC(=O)NCc1ccc2c(c1)OCO2")
"class 0"
>>> assigned_label("O=C(Cc1csc(Nc2nc(=S)[nH]c3ccccc23)n1)NCc1ccccc1Cl")
"class 0"
>>> assigned_label("Cc1cc(C(=O)OCC(=O)Nc2ccc(F)cc2)c(C)o1")
"class 0"
>>> assigned_label("O=C(Cc1csc(Nc2nc(=S)[nH]c3ccccc23)n1)NCc1cccc(Cl)c1")
"class 1"
>>> assigned_label("CCn1cc(C(=O)N2CC=C(c3ccccc3)CC2)c(=O)c2ccc(C)nc21")
"class 0"
>>> assigned_label("N#CC1=C(N)SC(N)=C(C#N)C1CCc1ccccc1")
"class 0"
>>> assigned_label("O=C1OC2(CCCCC2)OC(=O)C1=CNc1nc2ccccc2s1")
"class 1"
>>> assigned_label("O=C(NC(=S)Nc1ccccc1)c1csnn1")
"class 1"

Turning now to a further record.
Exercise: Outcome? COc1cc(NC(=O)CCn2c(=O)[nH]c3ccsc3c2=O)cc(OC)c1
Key: class 0

* * *

# Protocol Description: thallium influx changes without GIRK channels – cell-based, HEK-293 rmGlu8, no GIRK, thallium flux, counter-screen for GIRK activator project, confirmation (AID 623868);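 note: extra codes mark interference with 3 for fluorescent and 4 for baseline rise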
# Test Conditions: thallium flux fluorescence, at 10 µM, actives lie on both sides, codes: 1 enhancer, -1 blocker, 0 none, thallium stimulus containing EC20 glutamate
Out of some 2,100 compounds screened, about 760 (36%) were called active.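 The calls were made as follows: active = thallium-flux fluorescence traces judged by eye to show enhanced or reduced glutamate response, manual score 1 or -1, so both directions (some results past the limit were not filed as active); inactive = the rest, including fluorescent or raised-baseline compounds.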 These entries were drawn from the full list.
Log the outcome using a class from yes (1) = active, no (0) = inactive

# example entries with known answers
>>> assigned_label("COc1ccc(NC(=O)C(=O)NNC(=O)c2cccs2)cc1")
"yes (1)"
>>> assigned_label("COc1cccc(NC(=O)Nc2cccs2)c1")
"no (0)"
>>> assigned_label("COC(=O)c1cc(OC)c(OC)cc1NC(=O)Nc1ccc(OC)cc1OC")
"no (0)"
>>> assigned_label("COc1ccccc1NC(=O)COc1ccc(C(F)(F)F)cc1[N+](=O)[O-]")
"no (0)"
>>> assigned_label("COc1cccc(NC(=O)C(Sc2nc3ccccc3c(=O)n2CC(C)C)c2ccccc2)c1 (stereo unspecified)")
"yes (1)"
>>> assigned_label("CCOc1ccc(N2C(=O)c3ccccc3C2O)cc1 (stereo unspecified)")
"no (0)"
>>> assigned_label("O=C(c1ccc(Br)o1)N1CCN(c2ccc3nnc(-c4ccc(F)cc4)n3n2)CC1")
"yes (1)"
>>> assigned_label("COc1ccc(C(=O)NC(=S)N(Cc2ccccc2)Cc2ccccc2)cc1")
"yes (1)"

Exercise: GET /call?item= CCCn1c(SC(C(=O)Nc2cc(C)ccc2OC)c2ccccc2)nc2ccccc2c1=O (stereo unspecified) returns the recorded outcome of this test.
Key: yes (1)

Exercise: Query: recorded result category for COc1ccc(NC(=O)C(=O)NNC(=O)c2cccs2)c(OC)c1 in this test
Key: yes (1)

Exercise: Which outcome did this test record for the compound COc1ccc(S(=O)(=O)N(CCc2ccccc2)CC(=O)O)cc1 ?
Key: no (0)

* * *

# Protocol Description: thallium influx changes without GIRK channels – cell-based, HEK-293 rmGlu8, no GIRK, thallium flux, counter-screen for GIRK activator project, confirmation (AID 623868);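 note: extra codes mark interference with 3 for fluorescent and 4 for baseline rise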
# Test Conditions: thallium flux fluorescence, at 10 µM, actives lie on both sides, codes: 1 enhancer, -1 blocker, 0 none, thallium stimulus containing EC20 glutamate
Among all 2,100 compounds or so, about 760 (36%) were called active. Only a sample is shown.
Field: manual score. Provide a value for each of the molecules that follow.
Answers are plain numbers.

Look at each molecule and report its manual score.
1. CCOC(=O)C1=C(C)N=C2SCCC(=O)N2C1c1sccc1C (stereo not given)
2. O=C(c1oc(=O)c2ccccc2c1-c1ccccc1)N1CCN(C2CCCCC2)CC1
3. Cc1[nH]n(-c2cccc3ccccc23)c(=O)c1/C=N/c1sc2c(c1C#N)CCC2
4. CN1CCN(C(=S)NC(=O)/C=C/c2cccc3ccccc23)CC1
5. Cc1cc(C)c2nc(SCC(=O)NCCC3=CCCCC3)cc(C)c2c1

Key:
[-1, 0, 1, 0, 1]

# return manual score for each item in the list
1. O=C(NC(=S)N1CCN(Cc2ccccc2)CC1)c1ccccc1
2. CCN(CC)c1ccc(C(=O)NC(=S)N2CCN(Cc3ccc4c(c3)OCO4)CC2)cc1
3. CCOC(=O)c1ccc(NC(=O)N2CCN(Cc3cccc(F)c3)CC2)cc1
4. COC(=O)c1[nH]c2ccc(C)cc2c1NC(=O)CCN1CCN(Cc2ccc3c(c2)OCO3)CC1
5. CCOC(=O)C1=C(C)NC(=O)NC1c1ccc(Br)o1 (stereo not given)

Key:
1
1
0
0
0

* * *

# Protocol Description: thallium influx changes without GIRK channels – cell-based, HEK-293 rmGlu8, no GIRK, thallium flux, counter-screen for GIRK activator project, confirmation (AID 623868);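 note: extra codes mark interference with 3 for fluorescent and 4 for baseline rise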
# Test Conditions: thallium flux fluorescence, at 10 µM, actives lie on both sides, codes: 1 enhancer, -1 blocker, 0 none, thallium stimulus containing EC20 glutamate
Among all 2,100 compounds or so, about 760 (36%) were called active.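 The calls were made as follows: active = thallium-flux fluorescence traces judged by eye to show enhanced or reduced glutamate response, manual score 1 or -1, so both directions (some results past the limit were not filed as active); inactive = the rest, including fluorescent or raised-baseline compounds.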 Only a sample is shown.
Pick one and only one: Y = active, N = inactive

>>> assigned_label("O=C(c1ccc2c(=O)n(C3CCCC3)c(=S)[nH]c2c1)N1CCc2ccccc21")
"N"

Exercise: // param item: Cc1ccc(CN2C3=NCCCN3c3ccccc32)cc1 ; yields the recorded call
Key: N

* * *

Record form. Attribute: manual score. Fill in for each entry.
# Protocol Description: thallium influx changes without GIRK channels – cell-based, HEK-293 rmGlu8, no GIRK, thallium flux, counter-screen for GIRK activator project, confirmation (AID 623868);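 note: extra codes mark interference with 3 for fluorescent and 4 for baseline rise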
# Test Conditions: thallium flux fluorescence, at 10 µM, actives lie on both sides, codes: 1 enhancer, -1 blocker, 0 none, thallium stimulus containing EC20 glutamate
Among all 2,100 compounds or so, about 760 (36%) were called active. A selection follows.
One number for each entry.

>>> value("Cc1nccn1CCc1nc(N)nc(N)n1")
0
>>> value("CCCCn1c(N)c(C(=S)NC(=O)CC(C)C)c(=O)n(C)c1=O")
1
>>> value("Cc1ccc(C)c(N=C2CCCN2Cc2ccccc2)c1C#N")
-1

Your task in this section: give manual score for each listed record.
1. Cc1cc2nc(CCN(C(=S)NCC(C)C)C3CCCC3)[nH]c2cc1C
2. Cc1ccc(-n2c(CSc3nc(C)cc(C)n3)nnc2SCC(=O)NCc2ccco2)cc1
3. CCCCN(C)C1=CC2=CC(=C(C#N)C#N)CCC2CC1 (stereo not given)
4. N#C/C(=C/c1ccc(N2CCOCC2)o1)c1nc2ccccc2[nH]1
5. Cc1ccc(C)c(Nc2c([N+](=O)[O-])cc(C(=O)N3CC(=O)Nc4ccccc43)cc2[N+](=O)[O-])c1
6. CCn1c(SCC(=O)c2cc(C)n(CC3CCCO3)c2C)nc2ccccc21 (stereo not given)

Key:
0
0
3
3
0
0
